Target: T1, full-length activated human C1s (human, UniProt P09871 16-437; P09871 438-688)
T1 construct: also called active C1s
T1 sequence 1: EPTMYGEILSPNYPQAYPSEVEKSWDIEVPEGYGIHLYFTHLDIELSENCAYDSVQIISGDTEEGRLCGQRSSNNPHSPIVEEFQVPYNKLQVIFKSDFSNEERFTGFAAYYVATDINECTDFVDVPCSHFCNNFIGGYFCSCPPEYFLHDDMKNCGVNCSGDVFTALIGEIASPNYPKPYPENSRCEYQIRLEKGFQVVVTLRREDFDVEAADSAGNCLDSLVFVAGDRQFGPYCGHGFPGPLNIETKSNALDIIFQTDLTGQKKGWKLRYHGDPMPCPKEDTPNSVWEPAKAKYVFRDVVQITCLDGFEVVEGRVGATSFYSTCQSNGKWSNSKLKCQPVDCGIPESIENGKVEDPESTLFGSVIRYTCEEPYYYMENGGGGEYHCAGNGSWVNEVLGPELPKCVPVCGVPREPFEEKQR
T1 sequence 2: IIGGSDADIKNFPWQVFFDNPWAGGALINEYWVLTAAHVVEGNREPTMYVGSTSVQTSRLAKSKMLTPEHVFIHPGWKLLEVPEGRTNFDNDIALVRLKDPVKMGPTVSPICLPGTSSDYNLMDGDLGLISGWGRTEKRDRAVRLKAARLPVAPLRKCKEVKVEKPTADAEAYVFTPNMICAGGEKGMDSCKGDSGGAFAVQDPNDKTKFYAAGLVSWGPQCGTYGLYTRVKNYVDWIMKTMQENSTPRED
Assay: SPR; steady-state fit (K_(D, ss)), 1:1 model, of the same injection series as a2; ElpQ proteins amine-coupled to a CMD200 chip; activated C1s or C1r 0-200 nM; HBS-T Ca2+ (10 mM Hepes pH 7.3, 140 mM NaCl, 0.005% Tween-20, 5 mM CaCl2)
Conditions: both partners purified
Entries annotated with measured Kd

{"columns": ["Binder", "Kd [nM]"],
 "data": [
  ["ElpQ_(181-343) (domain or fragment, pT7HMT adds, as far as I recall, an N-terminal His-Myc tag with a TEV site that is usually cleaved; also called C-terminal truncation construct of ElpQ) REEAEQQKRQQEEEEKRQVDNQIKTLIAKIDEINENIDVIKWQTTVGPQGVIDRITGPVYDDFTNGNNSIRETWEGLEEESEDEGLGKLLKELSDARDALRTKLNEGNKPYTGYEEPKLKESVNVSEIKEDLEKLKSKLEEVKKYLKDSSKFEEIKGYISDSQ", 39.3],
  ["ElpQ_(181-340) (domain or fragment, also called ElpQ truncation lacking residues 341 to 343) REEAEQQKRQQEEEEKRQVDNQIKTLIAKIDEINENIDVIKWQTTVGPQGVIDRITGPVYDDFTNGNNSIRETWEGLEEESEDEGLGKLLKELSDARDALRTKLNEGNKPYTGYEEPKLKESVNVSEIKEDLEKLKSKLEEVKKYLKDSSKFEEIKGYIS", 55.6]
]}
